- Measurement Context: pH 7.4, LogD value measured by present invention (pH = 7.4), single measurements, water:n-octanol 100:1
Quick rule for you: logD at 1 or higher means Criterion met, lower means Criterion not met.

[[record]]
molecule = "c1ccc2ncccc2c1 [Quinoline]"
answer_label = "Criterion met"


Task: logD >= 1 for Nc1ccccc1 [Aniline] ?
Result: Criterion not met

Task: Check O=[N+]([O-])c1ccc(CO)cc1 [4-Nitrobenzyl alcohol] too.
Result: Criterion met

Task: Can you handle COc1ccc([N+](=O)[O-])cc1 [4-Nitroanisole] next?
Result: Criterion met

Task: What do you have for CN(C)CCCN1c2ccccc2Sc2ccc(Cl)cc21 [Chlorpromazine] ?
Result: Criterion met

Task: Another: NC(=O)c1ccccc1 [Benzamide]
Result: Criterion not met

Task: Same question for O=[N+]([O-])c1ccc(O)cc1 [4-Nitrophenol] please.
Result: Criterion met

###

- Assay: n-octanol/water logD by prior art shake-flask method
- Measurement Context: pH 7.4, LogD value measured (Prior art method) (pH = 7.4), single measurements, water:n-octanol 100:1
Value Kind: logD
Answer with a number only.

[[record]]
smiles_str = "Nc1ccccc1"
value_kind = "logD"
assay_result = 0.936


Task: Given `O=[N+]([O-])c1ccc(O)cc1` , state its recorded logD.
Result: 1.77

###

- Measurement Context: pH 7.4, logD, Magnetic nano-composite method, water/n-octanol 100, average of at least five, confidence level 95%
Value Kind: logD
Lab note: record just the number, no unit beside it.

Worked cases, logD given:
[[record]]
compound = "c1ccc2ncccc2c1 [Quinoline]"
assay_result = 2.19

[[record]]
compound = "CN(C)CCCN1c2ccccc2Sc2ccc(Cl)cc21 [Chlorpromazine]"
assay_result = 3.16

[[record]]
compound = "O=[N+]([O-])c1ccc(O)cc1 [4-Nitrophenol]"
assay_result = 1.49


Now consider a different compound.
Task: Reported logD for O=[N+]([O-])c1ccc(CO)cc1 [4-Nitrobenzyl alcohol] : what is it?
Result: 1.27

###

- Assay: n-octanol/water logD by prior art shake-flask method
- Measurement Context: n-octanol/water, pH 7.4, logD, Shake-Flask Method, water/n-octanol 100, average of at least five, confidence level 95%
Value Kind: logD
// return just the number, without any unit appended

[[record]]
smiles_str = "CN(C)CCCN1c2ccccc2Sc2ccc(Cl)cc21"
value_kind = "logD"
assay_result = 3.08


Here's the next entry for you.
Task: Consider the compound `c1ccc2ncccc2c1` and give its measured logD.
Result: 2.12

###

- Assay: n-octanol/water logD with stock solution of n-octanol-charged nanoparticles (SC-CO2 delivery, example 10)
- Measurement Context: pH 7.4
Value Kind: logD
API note: the answer field is a bare number with no unit suffix.

Please review the following examples before continuing.
[[record]]
smiles_str = "O=[N+]([O-])c1ccc(O)cc1"
assay_result = 1.45

[[record]]
smiles_str = "c1ccc2ncccc2c1"
assay_result = 2.08


Now turn to the next compound.
Task: Returns the measured logD for the input compound. Input: `CN(C)CCCN1c2ccccc2Sc2ccc(Cl)cc21`
Result: 3.17

###

Listing of entries alongside the reported logD.
- Assay: n-octanol/water logD by prior art shake-flask method
- Measurement Context: n-octanol/water, pH 7.4, LogD value measured (Prior art method) (pH = 7.4), single measurements, water:n-octanol 100:1
Lab note: record the figure alone, no unit after it.

Sample answers from the record:
[[record]]
smiles_str = "CN(C)CCCN1c2ccccc2Sc2ccc(Cl)cc21"
value_kind = "logD"
assay_result = 3.08

[[record]]
smiles_str = "c1ccc2ncccc2c1"
value_kind = "logD"
assay_result = 2.12

[[record]]
smiles_str = "O=[N+]([O-])c1ccc(CO)cc1"
value_kind = "logD"
assay_result = 1.25


Field: next molecule
Task: # input molecule: `COc1ccc([N+](=O)[O-])cc1` ; wanted: its logD
Result: 2.01
